Test system: SF-295 CNS
experiment.description: NCI-60 one-dose screen, 48 h
protocol.conditions: 10 µM unless noted
Protocol: Cells are grown in 96 well plates and exposed to the test compound for 48 hours. Compounds are tested at a single concentration, which is 10^-5 M for most compounds. The reported endpoint is percent growth (GI% or GIPRCNT), where numbers from 0 - 100% represent growth inhibition, and numbers from -100% - 0 represent cell death. For example, a value of 40 represents 60% growth inhibition. A value of 0 means no net growth occurred over the course of the experiment. […]
About 83,000 compounds went through this panel and 20% of them were active in at least one assay; those are over-represented in the sample as a whole. Calls of active or inactive are those of the source. Rule for the calls: active = growth percent below 10; inactive = the rest.
A correct response names exactly one class from y = active, n = inactive

Q: Dear colleague, could you share the recorded outcome for NC[C@@H]1O[C@H](O[C@@H]2[C@@H](CO)OC(O[C@@H]3[C@@H](O)[C@H](N)C[C@H](N)[C@H]3OC3O[C@H](CN)[C@@H](O)[C@H](O)[C@H]3N)[C@@H]2O)[C@H](N)[C@@H](O)[C@@H]1O (some centres undefined) when you have a moment?
A: n

Q: Dear colleague, could you share the recorded outcome for COc1cc(C(=O)/C=C/c2sc(Cl)nc2Cl)cc(OC)c1OC when you have a moment?
A: n

Q: Dear colleague, could you share the recorded outcome for CCOC(=O)c1cnn2c3ccccc3n(S(=O)(=O)c3ccc(OC)cc3)c12 when you have a moment?
A: n

Q: Dear colleague, could you share the recorded outcome for O=C(O)C(c1ccccc1)N1C(=O)CSC1=S (centres undefined) when you have a moment?
A: n

Q: Dear colleague, could you share the recorded outcome for CCCCOc1nc2ccc(OC)cc2cc1-c1cc(-c2ccc(Cl)cc2)nc(-c2ccc(Cl)cc2)c1 when you have a moment?
A: n

Q: Dear colleague, could you share the recorded outcome for Cc1ccc(C(C)C)cc1C(=O)C[n+]1ccccc1 when you have a moment?
A: n

====

System: DU-145 prostate
experiment.description: NCI-60 one-dose screen, 48 h (100 = growth as untreated, 0 = no growth, -100 = all killed)
protocol.conditions: 10 µM unless noted
The panel holds about 83,000 compounds, 20% with a hit somewhere; the sample as a whole holds those more often.
assay.readout: growth (%)
Answers are plain numbers, in %.

• O=C(Nc1ccc(Cl)cc1F)c1ccccc1O = 43.1
• CCOC(=O)CC1C(COC(=O)NC)OC(n2cnc3c(NC(=O)Nc4ccccc4)ncnc32)C1O[Si](C)(C)C(C)(C)C (stereo not drawn) = 58.7
• Cc1ccc(/C=C(\C#N)n2nc3cccc(F)c3n2)cc1 = 97.8

Below are 5 molecules. Give each one its growth.
1. CCCCOc1nc2ccc(OC)cc2cc1-c1cc(-c2ccc(Cl)cc2)nc(-c2ccc(Cl)cc2)c1
2. NC1=C(c2nn[nH]n2)C(c2ccccc2Cl)c2ccc3ccccc3c2O1 (stereo not drawn)
3. NC(=O)Nc1ccc2ncnc(Nc3ccc(Cl)cc3)c2c1
4. CCCCCCn1c(-c2ccc(C(=O)O/N=C(\N)c3ccc(OC)cc3)cc2)nc(-c2ccccc2)c1-c1ccccc1
5. Cc1ccc(S(=O)(=O)N/N=C/C2(c3ccccc3)CC2)cc1

A:
[114, 93.4, 52, -73.6, 114]

Below are 4 molecules. Give each one its growth.
1. COc1cc(Nc2cn[nH]c2-c2ccc(Cl)cc2)cc(OC)c1OC
2. CCOc1ccc2nc(SCc3nc4n(n3)S(=O)(=O)c3ccccc3N4C)sc2c1
3. CN1C(=O)CNC(=O)[C@H](NC(=O)c2nc3ccccc3cc2O)CSSC[C@H]1C(=O)NCCCc1nc2ccccc2cc1O
4. Cc1c(C(=O)N[C@@H](Cc2ccccc2)C(=O)C(=O)NCc2ccc(F)cc2)[nH]c2ccccc2c1=O

A:
108
25.3
42.3
105
